Tested on: A549/ATCC NSCLC
Assay: NCI-60 one-dose screen, 48 h (100 = growth as untreated, 0 = no growth, -100 = all killed)
Conditions: 10 µM unless noted
Compounds without any hit were thinned out: in the full panel of roughly 83,000, 20% have a hit.
Measurement Type: growth (%)

{"Compound": "O=[N+]([O-])c1cc(Br)c2cccc3c2c1CC3", "Data Value": 98.5}
{"Compound": "COC(=O)C1=C(C(=O)ON)[C@@H]2C=C[C@@]1([C@@H](Cc1ccccc1)Nc1ccccc1)O2", "Data Value": 92.9}
{"Compound": "N#C/C(=C\\c1ccc([N+](=O)[O-])s1)c1nc2cc(Br)ccc2s1", "Data Value": 5.93}
{"Compound": "Cc1nc2ccc(Cl)cn2c1-c1nnc(SCc2ccc([N+](=O)[O-])cc2)o1", "Data Value": 66.8}
{"Compound": "CCOC(=O)c1cc(C(=O)c2ccc(OC)c(OC)c2)n2c1ccc1ccccc12", "Data Value": 98.3}
{"Compound": "CCc1c2c(nc3ccc(OCc4ccc(B(O)O)cc4)cc13)-c1cc3c(c(=O)n1C2)COC(=O)[C@]3(O)CC", "Data Value": 7.22}
{"Compound": "CC[C@]12C=CCN3CC[C@@]4(c5cc(NC(=O)CCC(=O)O[C@H]6CC[C@H]7[C@@H]8CCC9=CC(=O)CC[C@@H]9[C@H]8CC[C@]67C)c(OC)cc5N(C)[C@H]4[C@@](O)(C(=O)OC)[C@@H]1OC(C)=O)[C@@H]32", "Data Value": 74.3}
{"Compound": "O=C(/C=C/c1ccc[nH]1)c1ccc(-n2ccc(C(F)(F)F)n2)c(F)c1", "Data Value": 87.4}
{"Compound": "CC(C)=CCC[C@](C)(O)[C@H]1CC[C@]2(C)[C@@H]1CC[C@@H]1[C@@]3(C)C/C(=C/c4ccccc4)C(=O)C(C)(C)[C@@H]3CC[C@]12C", "Data Value": 85.1}
{"Compound": "O=C(c1nc2ccccc2[nH]1)C1C(c2ccc(Cl)cc2)C2CC3CCCC[C@H]3N2[C@@]12C(=O)Nc1cc(Cl)ccc12 (some centres not stated)", "Data Value": 35.2}
{"Compound": "Cc1c(C)c([N+](=O)[O-])c(C)c([N+](=O)[O-])c1C", "Data Value": 98.2}
{"Compound": "C/C(=N\\Nc1cc(C)nc2ccc(Br)cc12)c1ccc([N+](=O)[O-])cc1", "Data Value": 78.6}
{"Compound": "C[C@@H](Nc1ncnc2ccc(-c3cnc(N)nc3)cc12)c1ccc(F)cc1", "Data Value": 74}
{"Compound": "C#CCNC(=O)c1cccc2c1cc(C)n2-c1nc2c(c(NCc3ccccc3)n1)CCCC2", "Data Value": -29.5}
{"Compound": "COc1ccc(/C=C/c2nc(Nc3ccc(S(=O)(=O)Nc4nc(C)cc(C)n4)cc3)c3ccccc3n2)cc1", "Data Value": 42.2}
{"Compound": "C[C@H]1[C@H]2[C@H]3CC[C@@H]4[C@@]5(C)CC[C@H](O)C(C)(C)[C@@H]5CC[C@@]4(C)[C@]3(C)CC[C@]23CO[C@]1(C)[C@@H](C(=O)/C=C\\c1ccco1)C3", "Data Value": 104}
{"Compound": "Cc1nn(-c2ccccc2)c(Cl)c1/C=N\\N=c1/sc2ccccc2n1C", "Data Value": 85.1}
